Target: Recombinant full length human OGA enzyme (Homo sapiens, UniProt O60502)
Construct: Recombinant full length human OGA enzyme was purchased from Origene; purchased Origene
Sequence (O60502 whole entry): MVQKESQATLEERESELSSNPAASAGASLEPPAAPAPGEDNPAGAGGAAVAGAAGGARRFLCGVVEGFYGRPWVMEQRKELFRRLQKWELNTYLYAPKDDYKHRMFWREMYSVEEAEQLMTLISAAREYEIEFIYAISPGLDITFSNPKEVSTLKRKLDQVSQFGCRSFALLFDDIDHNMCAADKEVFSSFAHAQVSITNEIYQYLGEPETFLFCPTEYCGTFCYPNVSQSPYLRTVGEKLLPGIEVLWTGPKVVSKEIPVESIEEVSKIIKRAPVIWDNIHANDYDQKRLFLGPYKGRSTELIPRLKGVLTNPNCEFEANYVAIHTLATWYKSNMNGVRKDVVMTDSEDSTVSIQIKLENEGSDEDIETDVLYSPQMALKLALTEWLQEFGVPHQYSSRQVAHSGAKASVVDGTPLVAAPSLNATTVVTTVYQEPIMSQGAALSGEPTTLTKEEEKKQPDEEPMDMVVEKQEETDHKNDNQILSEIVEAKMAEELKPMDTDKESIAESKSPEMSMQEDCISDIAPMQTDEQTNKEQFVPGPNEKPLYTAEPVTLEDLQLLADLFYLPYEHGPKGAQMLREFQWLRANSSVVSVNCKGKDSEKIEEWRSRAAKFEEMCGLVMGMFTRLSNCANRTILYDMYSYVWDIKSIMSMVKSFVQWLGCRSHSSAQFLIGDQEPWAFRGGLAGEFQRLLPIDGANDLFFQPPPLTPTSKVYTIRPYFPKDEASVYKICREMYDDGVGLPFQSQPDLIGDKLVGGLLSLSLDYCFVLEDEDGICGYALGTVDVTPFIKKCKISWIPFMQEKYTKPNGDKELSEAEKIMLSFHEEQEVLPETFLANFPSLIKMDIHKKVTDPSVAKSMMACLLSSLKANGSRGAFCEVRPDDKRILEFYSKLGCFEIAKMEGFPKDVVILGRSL
Experiment: OGA enzyme inhibition biochemical assay
Details: 1 nM OGA, 100 μM 4-MUGlcNAc (Km), pH 6.4, 90 minutes at room temperature, 10-point dose-response from 20 μM
Assay Metric: pIC50
pIC50 here: minus log base 10 of the concentration, concentration in moles per litre.

Q: Quick check: pIC50 of CC(=O)Nc1ncc(CN2C[C@H](Oc3nccc4occc34)C[C@@H]2C)s1 [Example 22] ?
Result: 8.68

Q: Give its pIC50 value. Item: CC(=O)Nc1ncc(CN2C[C@H](Oc3ccnc4nc(C(F)(F)F)nn34)C[C@@H]2C)s1
Result: 7.66

Q: Reported pIC50 for CC(=O)Nc1ncc(CN2C[C@H](Oc3nccc4oc(C(N)=O)cc34)C[C@@H]2C)s1 : what is it?
Result: 8.55

Q: Which pIC50 reading was recorded for the compound CC(=O)Nc1ncc(CN2C[C@H](Oc3ncnc4occc34)C[C@@H]2C)s1 [Example 46] ?
Result: 8.96

Q: Any idea what its pIC50 is? The compound is CC(=O)Nc1nc(F)c(CN2C[C@H](Oc3nccc4nccnc34)C[C@@H]2C)s1
Result: 8.42

Q: Which measured pIC50 value corresponds to CC(=O)Nc1nc(F)c(CN2C[C@H](Oc3ncnc4ncccc34)C[C@@H]2C)s1 ?
Result: 8.96

Q: Give its pIC50 value. Item: CC(=O)Nc1ncc(CN2C[C@H](Oc3nccc4sccc34)C[C@@H]2C)s1
Result: 8.60

* * *

Molecular target: Recombinant full length human OGA enzyme (Homo sapiens, UniProt O60502)
Construct: Recombinant full length human OGA enzyme was purchased from Origene
Test: OGA enzyme inhibition biochemical assay
Settings: 1 nM OGA, 100 μM 4-MUGlcNAc (Km), pH 6.4, 90 minutes at room temperature, 10-point dose-response from 20 μM
Assay Metric: IC50

Q: Value lookup for IC50; key = CC(=O)Nc1nc(F)c(CN2C[C@H](Oc3ccn4ccnc4c3)C[C@@H]2C)s1 [Example 43]
Result: < 1 nM

Q: Query: IC50; subject: CC(=O)Nc1ncc(CN2C[C@H](Oc3ncc4c(n3)CCCC4)C[C@@H]2C)s1 [Example 10]
Result: < 1 nM

Q: Endpoint output: IC50 of CC(=O)Nc1nc(F)c(CN2C[C@H](Oc3nccn4cnnc34)C[C@@H]2C)s1 [Example 101] . Value?
Result: < 1 nM

Q: I'd like to know its IC50. The compound in question is CC(=O)Nc1ncc(CN2C[C@H](Oc3ccnc4c3CCCC4)C[C@@H]2C)s1 [Example 33]
Result: 16 nM

Q: Please give the measured IC50 for this compound: CC(=O)Nc1nc(F)c(CN2C[C@H](Oc3ccc4occc4n3)C[C@@H]2C)s1 [Example 66]
Result: < 1 nM

Q: Which value of IC50 has been reported for CC(=O)Nc1nc(F)c(CN2C[C@H](Oc3ccn4nccc4n3)C[C@@H]2C)s1 [Example 62] in the records?
Result: < 1 nM

Q: Which IC50 value is on record for CC(=O)Nc1ncc(CN2C[C@H](Oc3ccc4nn(C)cc4c3)C[C@@H]2C)s1 [Example 44] ?
Result: < 1 nM

Q: Recorded IC50 of CC(=O)Nc1ncc(CN2C[C@H](Oc3ccc4ccn(C)c4n3)C[C@@H]2C)s1 [Example 162] , please.
Result: < 1 nM
